Hi there, I'd appreciate the recorded IC50 for every entry that follows.
Molecular target: T1, soluble IL6R in human plasma (human, UniProt P08887 20-355, limits assumed)
T1 sequence (looked up): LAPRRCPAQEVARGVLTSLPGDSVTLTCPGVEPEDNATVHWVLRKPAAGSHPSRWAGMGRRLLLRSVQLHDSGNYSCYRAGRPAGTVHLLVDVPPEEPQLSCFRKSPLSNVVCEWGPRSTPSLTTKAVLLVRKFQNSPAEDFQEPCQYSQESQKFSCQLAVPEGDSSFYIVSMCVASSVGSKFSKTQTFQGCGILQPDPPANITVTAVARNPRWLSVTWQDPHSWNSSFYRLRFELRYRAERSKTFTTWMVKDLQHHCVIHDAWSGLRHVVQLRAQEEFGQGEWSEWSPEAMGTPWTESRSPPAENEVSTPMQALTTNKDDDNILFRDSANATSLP
Assay: human plasma potency assay: competition ELISA, inhibition of human IL6 binding to soluble IL6R
One number for each entry, in nM.

Below are 6 binders. Give each one its IC50.
1. Nanobody IL6R65 (VHH, also called ILR65) VHH: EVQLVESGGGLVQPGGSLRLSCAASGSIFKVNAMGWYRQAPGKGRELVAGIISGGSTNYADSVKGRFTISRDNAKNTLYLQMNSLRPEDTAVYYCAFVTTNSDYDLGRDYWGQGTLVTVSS
2. IL6R65PMP7G7 (VHH, Also expressed in E. coli and purified via IMAC) VHH: EVQLVESGGGLVQPGGSLRLSCAASGTTFKINIMAWYRQAPGKGRELVAGVITGGNTTYADSVKGRFTISRDNAKNTLYLQMNSLRPEDTAVYYCAFVTTNSDYDLGRDYWGQGTLVTVSS
3. IL6R65PMP7C4 (VHH, Also expressed in E. coli and purified via IMAC) VHH: EVQLVESGGGLVQPGGSLRLSCAASGTTFRINVMAWYRQAPGKGRELVAGIITNGSTSYADSVKGRFTISRDNAKNTLYLQMNSLRPEDTAVYYCAFVTTNSDYDLGRDYWGQGTLVTVSS
4. IL6R65PMP7F4 (VHH, Also expressed in E. coli and purified via IMAC) VHH: EVQLVESGGGLVQPGGSLRLSCAASGTTFKVNVMAWYRQAPGKGRELVAGIINGGSTTYADSVKGRFTISRDNAKNTLYLQMNSLRPEDTAVYYCAFVTTNSDYDLGRDYWGQGTLVTVSS
5. IL6R65PMP7D6 (VHH, Also expressed in E. coli and purified via IMAC) VHH: EVQLVESGGGLVQPGGSLRLSCAASGSIFRVNVMAWYRQAPGKGRELVAAVINGGTTTYADSVKGRFTISRDNAKNTLYLQMNSLRPEDTAVYYCAFVTTNSDYDLGRDYWGQGTLVTVSS
6. IL6R65PMP7G8 (VHH, Also expressed in E. coli and purified via IMAC) VHH: EVQLVESGGGLVQPGGSLRLSCAASGSTFRINVMAWYRQAPGKGRELVAGVINDGSTTYADSVKGRFTISRDNAKNTLYLQMNSLRPEDTAVYYCAFVTTNSDYDLGRDYWGQGTLVTVSS

output:
[4.93, 0.22, 0.21, 0.24, 0.19, 0.34]
